System: male mice
CONDITION_INFO: mouse, in vivo, ip, 1440 min
Let's look at some molecules and their measured Minimum Toxic Dose.

// solved cases for Minimum Toxic Dose follow
CCCCN1C(=O)C2C(=O)N(CCCCN3CCN(c4ccccc4OCC)CC3)C(=O)C(C1=O)C2(C)C	> 300 mg/kg
CCCCN1C(=O)C2C(=O)N(CCCCN3CCN(c4ccc(F)cc4)CC3)C(=O)C(C1=O)C2(C)C	> 300 mg/kg
CCCCCCN1C(=O)C2C(=O)N(CCCCCN3CCN(c4cccc(C)c4)CC3)C(=O)C(C1=O)C2(C)C	> 300 mg/kg

Problem: Need Minimum Toxic Dose of CCCCN1C(=O)C2C(=O)N(CCCCN3CCN(c4ccccc4OC)CC3)C(=O)C(C1=O)C2(C)C , thanks.
Result: 200 mg/kg
